Test system: rodent lifetime carcinogenesis bioassay, tumor incidence TD50
test.summary: carcinogenic potency in animals, long-term in vivo studies, CPDB compilation (AID 1745844)
recorded.conditions: mouse; strain B6C3F1; males; i.p.; site: lung; lesion: alveolar/bronchiolar adenoma + alveolar/bronchiolar carcinoma; dosed 52 weeks; study length 86 weeks
observable: TD50 (mg/kg/day)
Give bare numbers, in mg/kg/day.

Entry under test: CC(CN1CC(=O)NC(=O)C1)N1CC(=O)NC(=O)C1 (stereo unspecified) . Its TD50 was 212

---

Tested on: rodent lifetime carcinogenesis bioassay, tumor incidence TD50
test.summary: carcinogenic potency in animals, long-term in vivo studies, CPDB compilation (AID 1745844)
recorded.conditions: mouse; strain B6C3F1; females; in drinking water; site: lung; lesion: several types; types named in the paper; dosed 78 weeks; study length 104 weeks
observable: TD50
Give the value; after it, write the unit.

Param item: [O-][Br+2]([O-])O ; param system: rodent lifetime carcinogenesis bioassay, tumor incidence TD50; output TD50: 1050 mg/kg/day

---

Test system: rodent lifetime carcinogenesis bioassay, tumor incidence TD50
test.summary: carcinogenic potency in animals, long-term in vivo studies, CPDB compilation (AID 1745844)
recorded.conditions: rat; strain Fischer 344; females; in drinking water; site: clitoral gland; lesion: carcinoma + carcinoma, bilateral; dosed 96 weeks; study length 97 weeks
observable: TD50 (mg/kg/day)
Numbers only, in mg/kg/day.

Entry under test: COc1cc(-c2ccc(N=Nc3c(S(=O)(=O)O)cc4cc(S(=O)(=O)O)cc(N)c4c3O)c(OC)c2)ccc1N=Nc1c(S(=O)(=O)O)cc2cc(S(=O)(=O)O)cc(N)c2c1O . Its TD50 was 107

---

System: rodent lifetime carcinogenesis bioassay, tumor incidence TD50
test.summary: carcinogenic potency in animals, long-term in vivo studies, CPDB compilation (AID 1745844)
recorded.conditions: rat; strain Fischer 344; males; in drinking water; site: skin; lesion: basal-cell adenoma; dosed 58 weeks; study length 60 weeks
observable: TD50
Give the value; after it, write the unit.

Entry under test: Cc1cc(-c2ccc(N)c(C)c2)ccc1N . Its TD50 was 0.534 mg/kg/day

---

System: rodent lifetime carcinogenesis bioassay, tumor incidence TD50
test.summary: carcinogenic potency in animals, long-term in vivo studies, CPDB compilation (AID 1745844)
recorded.conditions: rat; strain Fischer 344; females; in drinking water; site: clitoral gland + colon + duodenum + ileum + jejunum + liver + lung + mammary gland + pharynx + rectum + skin + tongue + Zymbal's gland; lesion: adenoma + adenoma, bilateral + carcinoma + carcinoma, bilateral + adenocarcinoma + adenomatous polyp + mucinous adenocarcinoma + mucin; dosed 60 weeks; study length 60 weeks
observable: TD50

Entry under test: Cc1cc(-c2ccc(N)c(C)c2)ccc1N . Its TD50 was 0.418 mg/kg/day

---

System: rodent lifetime carcinogenesis bioassay, tumor incidence TD50
test.summary: carcinogenic potency in animals, long-term in vivo studies, CPDB compilation (AID 1745844)
recorded.conditions: mouse; strain Swiss albino; males; in drinking water; site: lung; lesion: several types; types named in the paper; dosed 82 weeks; study length 82 weeks
observable: TD50

C=CCNNCC=C : 33.9 mg/kg/day

Kindly review the next compound as well.
Entry under test: CN(N)C=O . Its TD50 was 1.87 mg/kg/day

---

System: rodent lifetime carcinogenesis bioassay, tumor incidence TD50
test.summary: carcinogenic potency in animals, long-term in vivo studies, CPDB compilation (AID 1745844)
recorded.conditions: rat; strain Fischer 344; females; inhaled; site: liver; lesion: hepatocellular adenoma + hepatoblastoma + hepatocellular carcinoma; dosed 103 weeks; study length 104 weeks
observable: TD50 (mg/kg/day)
Numbers only, in mg/kg/day.

Entry under test: FC(F)=C(F)F . Its TD50 was 156
